# maps each entry to its superoxide response (% of plate)
Assay: calorie-restriction mimetic ROS inhibitors, yeast – validation compound set, pilot screen (AID 2706);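 also: yeast exposed to compound for one week at 30 degrees C before staining; 100% = mean of all compound wells on the same plate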
Details: S. cerevisiae aging, superoxide DHE fluorescence; at 10 µM; hits give low values
Number in %, nothing else.

These recorded examples may help you get a feel for the data.
INSERT INTO assay_data (molecule, recorded_metric, value_observed) VALUES
  ('COCCCNc1nc2c([nH]1)c(=O)[nH]c(=O)n2C', 'superoxide response (% of plate)', 94.3),
  ('C[C@]12CC[C@@H]3c4ccc(O)cc4CC[C@H]3[C@@H]1C[C@@H](O)[C@@H]2O[C@@H]1O[C@H](C(=O)O)[C@@H](O)[C@H](O)[C@H]1O', 'superoxide response (% of plate)', 109),
  ('O=C(c1ccc(Cl)cc1)C1CCCN(Cc2ccc(Oc3ncccn3)cc2)C1 (configuration not stated)', 'superoxide response (% of plate)', 93.5),
  ('S=C(c1ccc2c(c1)OCO2)N1CCCCC1', 'superoxide response (% of plate)', 91),
  ('COc1ccc2[nH]c(=O)c(CNC3CCCCC3)cc2c1', 'superoxide response (% of plate)', 106);

## Input Indicate its recorded superoxide response (% of plate); the molecule in question is COC(=O)c1ccc2c(c1)C(=O)/C(=C/c1ccc(O)cc1)O2
## Output 102

## Input Identify the reported superoxide response (% of plate) for the following entry. CC(=O)N(CCC1(c2ccc(C)cc2)CCOC(C(C)C)C1)Cc1ccco1 (configuration not stated)
## Output 99.9

## Input Report superoxide response (% of plate) for Cc1ccc2c(ccc(=S)n2C)c1
## Output 87.8

###

Test: TOR pathway RTG branch CIT2 reporter changes – S. cerevisiae, GFP fusion, multiplex flow cytometry, primary screen (AID 1870);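 also: barcoded CIT2-GFP strain pooled with four other GFP strains with rapamycin as positive control; median GFP fluorescence per well over plate mean of DMSO wells so 100% = DMSO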
Details: S. cerevisiae CIT2-GFP expression, 3 h, at 10 µM, hits give high values
recorded-metric: percent response of DMSO control (%)
Just the number please, in %, no unit attached.

// solved cases for percent response of DMSO control follow
INSERT INTO results (molecule, recorded_metric, value_observed) VALUES
  ('CCc1nc2ccccc2n1Cc1ccc(OC)c(OC)c1', 'percent response of DMSO control', 95.7),
  ('O=C(NC(=S)Nc1nc(-c2ccccc2)cs1)c1ccco1', 'percent response of DMSO control', 102),
  ('CN1CCCN=C1COC(=O)C(O)(c1ccccc1)C1CCCCC1 (stereo not given)', 'percent response of DMSO control', 93.1),
  ('C[C@H]1C[C@@H]2[C@H]([C@@H](O)C[C@@]3(C)[C@H]2CC[C@]3(O)C(=O)CO)[C@@]2(C)C=CC(=O)C=C12', 'percent response of DMSO control', 93.9),
  ('COc1cc2c(cc1OC)CN(C(=O)c1ccc(S(=O)(=O)N(C)c3ccccc3)cc1)CC2', 'percent response of DMSO control', 99.6),
  ('CSc1cccc(NC(=O)/C=C/c2ccccc2)c1', 'percent response of DMSO control', 88.6);

## Input Answer with the recorded percent response of DMSO control of Cc1nc(NCc2ccco2)c(C#N)c2c1COC(C)(C)C2 only.
## Output 96.5

## Input Kindly indicate its recorded percent response of DMSO control. Item: COc1cc(COc2ccc3c(C)c(Cc4ccccc4)c(=O)oc3c2)cc(OC)c1OC
## Output 122

## Input Query percent response of DMSO control for COc1ccc2oc(=O)c(C(=O)Nc3ccccc3-c3ccccc3)cc2c1
## Output 99

## Input Give a short answer stating reported percent response of DMSO control for CCN(CCCCOC(=O)c1ccc(OC)c(OC)c1)C(C)Cc1ccc(OC)cc1 (stereo not given) .
## Output 102
